assayed-target: T1, human Nectin-4 extracellular antigen hNectin-4-His (human, UniProt Q96NY8 32-349)
T1 construct: C-terminal 8xHis tag included
T1 sequence: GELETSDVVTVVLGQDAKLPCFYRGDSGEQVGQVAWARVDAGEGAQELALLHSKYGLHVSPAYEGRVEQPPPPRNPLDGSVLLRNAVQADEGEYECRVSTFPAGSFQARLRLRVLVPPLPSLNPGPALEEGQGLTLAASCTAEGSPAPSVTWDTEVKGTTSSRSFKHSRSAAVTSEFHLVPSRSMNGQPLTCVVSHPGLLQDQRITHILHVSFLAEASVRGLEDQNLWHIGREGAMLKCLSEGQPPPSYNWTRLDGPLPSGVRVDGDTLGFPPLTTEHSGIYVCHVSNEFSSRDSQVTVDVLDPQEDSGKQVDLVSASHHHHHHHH
method-summary: SPR, antibody on Protein A chip, 1:1 fit
measurement-type: koff (s⁻¹)

* antibody 10F4-1G7 (antibody, human IgG1, kappa, V domains shown) VH: EVQLVESGGGLVQPGGSLRLSCAASGYNFGDYDMSWVRQAPGKGLEWVSSIIGHGDTKFYADSVKGRFTISRDNSKNTLYLQMNSLRAEDTAVYYCAREYSDVVDYVSVRTPLDYWGQGTLVTVSS VL: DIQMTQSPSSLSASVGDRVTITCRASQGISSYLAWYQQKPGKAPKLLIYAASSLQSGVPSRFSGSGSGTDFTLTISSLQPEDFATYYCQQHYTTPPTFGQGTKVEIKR | 0.000145
* antibody 1G8-1G3 (antibody, human IgG1, kappa, V domains shown) VH: EVQLVESGGGLVQPGGSLRLSCAASGFNFGTYAMSWVRQAPGKGLEWVSRISGISAGTNYADSVKGRFTISRDNSKNTLYLQMNSLRAEDTAVYYCARQTEDRSYGYDLDYWGQGTLVTVSS VL: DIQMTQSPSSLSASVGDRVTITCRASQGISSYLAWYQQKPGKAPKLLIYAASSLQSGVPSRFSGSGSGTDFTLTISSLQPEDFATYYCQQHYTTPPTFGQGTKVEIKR | 0.00141
* antibody 1F3-1E1 (antibody, human IgG1, kappa, V domains shown) VH: EVQLVESGGGLVQPGGSLRLSCAASGFSFDDYAMSWVRQAPGKGLEWVSIIYPTGSTNYYADSVKGRFTISRDNSKNTLYLQMNSLRAEDTAVYYCARAELLAFDVYTASDYWGQGTLVTVSS VL: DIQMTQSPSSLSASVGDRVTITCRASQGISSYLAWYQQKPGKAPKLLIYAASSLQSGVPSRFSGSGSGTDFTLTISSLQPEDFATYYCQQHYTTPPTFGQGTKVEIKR | 0.000212
* antibody 10F4-1C10 (antibody, human IgG1, kappa, V domains shown) VH: EVQLVESGGGLVQPGGSLRLSCAASGYNFGSYDMSWVRQAPGKGLEWVSGIKTYGGNTHYADSVKGRFTISRDNSKNTLYLQMNSLRAEDTAVYYCAREYSDVVDYVSVRTPLDYWGQGTLVTVSS VL: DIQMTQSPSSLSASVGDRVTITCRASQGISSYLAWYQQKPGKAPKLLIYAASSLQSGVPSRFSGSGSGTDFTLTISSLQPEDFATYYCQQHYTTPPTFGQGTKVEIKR | 0.000116
